Can you tell me mortality at 0.1 µg/female for the items I'm about to list?
# Tested on: green rice leafhoppers (Nephotettix cincticeps Uhler)
# PROTOCOL: Mortality test with green rice leafhoppers by topical application method
# MEASUREMENT CONTEXT: Nephotettix cincticeps, in Oryza sativa, 24 h
The reply should consist of the numeric value with the unit placed after it.

Use these answered entries as a reference point.
Specify reported mortality at 0.1 µg/female for the molecule shown: CC(C)C(C(=O)OC(C#N)c1cccc(Oc2ccccc2)c1)c1ccc(Cl)cc1 (stereo not drawn) [Compound (E), Fenvalerate]
100%

Specify reported mortality at 0.1 µg/female for the molecule shown: CC(C)=CC1C(C(=O)OCc2cccc(Oc3ccccc3)c2)C1(C)C (stereo not drawn) [Compound (A), Phenothrin]
100%

More entries:
Specify reported mortality at 0.1 µg/female for the molecule shown: CC1(C)[C@@H](C=C(Cl)Cl)[C@@H]1C(=O)OCc1cccc(Oc2ccc(Cl)cc2)c1 (relative stereo) [Compound (1) trans-]
100%
